Target: T1, IL-11 (UniProt P20809 22-199, limits assumed)
T1 construct: also called IL-11 protein; IL-11 antigen
T1 sequence (looked up): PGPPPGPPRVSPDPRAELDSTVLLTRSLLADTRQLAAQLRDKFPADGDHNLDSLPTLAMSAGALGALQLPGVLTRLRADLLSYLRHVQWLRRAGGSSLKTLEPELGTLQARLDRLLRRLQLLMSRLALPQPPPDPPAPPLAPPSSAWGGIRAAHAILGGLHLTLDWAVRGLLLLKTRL
Assay: phage ELISA on IL-11
ELISA: recorded values

{"binder": "1F10 (scFv, As m119: scFv on phage) scFv: QVQLVQSGAEVKKPGASVKVSCKASDYTFTNYWLGWVRQAPGQGLEWMGHIYPGGGYTNYNEKFKGRVTMTRDTSTSTVYMELSSLRSEDTAVYYCARVRSGNDALDIWGQGTLVTVSSGGGGSGGGGSGGGGSEIVLTQSPATLSLSPGERATLSCRASESVDEYGISFMNWFQQKPGQAPRLLIYSASNQGDGIPARFSGSGSGTDFTLTISSLEPEDFAVYFCQQSKDVPWTFGGGTKLEIK", "ELISA": 2.6}
{"binder": "1F12 (scFv, As m119: scFv on phage) scFv: QVQLVQSGAEVKKPGASVKVSCKASDYTFTNYWLGWVRQAPGQGLEWMGHIYPGGGYTNYNEKFKGRVTMTRDTSTSTVYMELSSLRSEDTAVYYCARVSSGNDALDFWGQGTLVTVSSGGGGSGGGGSGGGGSEIVLTQSPATLSLSPGERATLSCRASESVDEYGISFMNWFQQKPGQAPRLLIYSASNQASGIPARFSGSGSGTDFTLTISSLEPEDFAVYFCQQSKELPWTFGGGTKLEIK", "ELISA": 2.59}
{"binder": "2E2 (scFv, As m119: scFv on phage) scFv: QVQLVQSGAEVKKPGASVKVSCKASDYTFTNYWLGWVRQAPGQGLEWMGHIYPGGGYTNYNEKFKGRVTMTRDTSTSTVYMELSSLRSEDTAVYYCARVSSGNDALDFWGQGTLVTVSSGGGGSGGGGSGGGGSEIVLTQSPATLSLSPGERATLSCRASESVDEYGISFMNWFQQKPGQAPRLLIYSASNQGSGIPARFSGSGSGTDFTLTISSLEPEDFAVYFCQQSKELPWTFGGGTKLEIK", "ELISA": 2.58}
{"binder": "1B1 (scFv, As m119: scFv on phage) scFv: QVQLVQSGAVVKKPGASVKVSCKASDYTFTNYWLGWVRQAPGQGLEWMGHIYPGGGYTNYNEKFKGRVTMTSDTSTSTVYMELSSLSSEDTAVYYCARVRSGNDALDFWGQGTLVTVSSGGGGSGGGGSGGGGSEIVLTQSPATLSLSPGERATLSCHASESVDEYGISFMNWFQQKPGQAPRLLIYSASNQGSGIPARFSGSGSGTDFTLTISSLEPEDFAVYFCQQSKEVPWTFGGGTKLEIK", "ELISA": 1.46}
